Listed here: items and their measured protein stability index.
System: Saccharomyces cerevisiae;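 note: PSI is a weighted mean of sequencing reads over stability bins, variants kept only with over 10 reads, mCherry proximal and sfGFP distal, peptide attached via GGGS linker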
protocol_description: protein stability index of tFT-peptide fusion (C-terminal peptide) (PSI (0-1 scale)); higher = more stable (slower turnover)
test_parameters: genetic background: wild type; temperature: 37 C
property_measured: protein stability index

sequence_text=RVEPYDLARRVL property_measured="protein stability index" recorded_value=0.71
sequence_text=LCVFFRCFFVGG property_measured="protein stability index" recorded_value=0.572
sequence_text=YYLHFRFFIYVF property_measured="protein stability index" recorded_value=0.13
sequence_text=RGDCFLVLCVWR property_measured="protein stability index" recorded_value=0.541
sequence_text=GFFFLFFVSAFI property_measured="protein stability index" recorded_value=0.445
sequence_text=GLAVLSWLYIEL property_measured="protein stability index" recorded_value=0.57
sequence_text=WCVCVSMRMIAI property_measured="protein stability index" recorded_value=0.159
sequence_text=WYAGIVFTRVWM property_measured="protein stability index" recorded_value=0.622
sequence_text=PCNVLWYSLFLF property_measured="protein stability index" recorded_value=0.34
sequence_text=AVLSFVLVRSVV property_measured="protein stability index" recorded_value=0.574
sequence_text=VFFPCRLLPLLF property_measured="protein stability index" recorded_value=0.286
sequence_text=LAVRSGFPFGLF property_measured="protein stability index" recorded_value=0.224
sequence_text=FFSRSLGAGVAA property_measured="protein stability index" recorded_value=0.724
sequence_text=YFLFRYIVITVF property_measured="protein stability index" recorded_value=0.0695
sequence_text=RRSRLYKKAGLM property_measured="protein stability index" recorded_value=0.296
sequence_text=SPRSIALLHLFS property_measured="protein stability index" recorded_value=0.327
sequence_text=VAFFSVFYWLEC property_measured="protein stability index" recorded_value=0.454
sequence_text=WLKLWSYVTHLG property_measured="protein stability index" recorded_value=0.581
sequence_text=IKERRKVSMKVY property_measured="protein stability index" recorded_value=0.557
sequence_text=VVPYPFLTLLNI property_measured="protein stability index" recorded_value=0.492
sequence_text=VYVYTIRVRWSE property_measured="protein stability index" recorded_value=0.269
sequence_text=GLSVFFFVGFIF property_measured="protein stability index" recorded_value=0.521
sequence_text=CSFPTFRSLLLL property_measured="protein stability index" recorded_value=0.438
sequence_text=PPRPLHPPCRPP property_measured="protein stability index" recorded_value=0.688
sequence_text=CVLSWSLFVVVW property_measured="protein stability index" recorded_value=0.0346
sequence_text=RCIRRWPYILKL property_measured="protein stability index" recorded_value=0.285
sequence_text=CFYSRTIILEHC property_measured="protein stability index" recorded_value=0.34
sequence_text=KQSGLQIKRRKL property_measured="protein stability index" recorded_value=0.763
sequence_text=FRYLRPAFLLLH property_measured="protein stability index" recorded_value=0.0854
sequence_text=SPSRAGQHLYYP property_measured="protein stability index" recorded_value=0.695
sequence_text=KKTKKTMIIKTT property_measured="protein stability index" recorded_value=0.605
sequence_text=SVLALLWVGCWL property_measured="protein stability index" recorded_value=0.452
sequence_text=SLIFLLVLILSL property_measured="protein stability index" recorded_value=0.483
sequence_text=VNFVLTLYPYLV property_measured="protein stability index" recorded_value=0.447
sequence_text=VFCCHSSRFVFA property_measured="protein stability index" recorded_value=0.623
sequence_text=GFALGSFMLVLR property_measured="protein stability index" recorded_value=0.0617
sequence_text=VIVIQGFVFVLG property_measured="protein stability index" recorded_value=0.421
sequence_text=YHFRLLVTCCPC property_measured="protein stability index" recorded_value=0.351
sequence_text=LSSIIRFLIFCL property_measured="protein stability index" recorded_value=0.469
sequence_text=GGRHYGILDLSL property_measured="protein stability index" recorded_value=0.699
sequence_text=SRGGVFYVRIHS property_measured="protein stability index" recorded_value=0.492
